From: ChEMBL document CHEMBL3785041

target: UniProt Q5NUL3; assay: Agonist activity at human C-terminal YFP-tagged FFA4 receptor expressed in HEK293 cells incubated for 5 mins by BRET based beta-arrestin 2 recruitment assay
Sequence (Q5NUL3 whole entry): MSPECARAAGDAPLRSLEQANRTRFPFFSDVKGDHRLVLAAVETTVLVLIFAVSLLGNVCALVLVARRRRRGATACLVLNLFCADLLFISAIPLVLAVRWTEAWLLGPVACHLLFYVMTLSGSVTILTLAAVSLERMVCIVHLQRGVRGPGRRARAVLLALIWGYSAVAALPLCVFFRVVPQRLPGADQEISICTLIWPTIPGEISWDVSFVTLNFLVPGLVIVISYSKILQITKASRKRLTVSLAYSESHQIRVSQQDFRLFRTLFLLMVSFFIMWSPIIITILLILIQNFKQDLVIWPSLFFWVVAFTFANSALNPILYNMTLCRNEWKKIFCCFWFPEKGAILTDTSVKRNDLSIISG
I'd appreciate it if you could supply EC50 values for the items below.

Consider the reported EC50 for these compounds:
O=C(O)CCc1ccc(C#CC2CC2)cc1 | > 100 µM
O=C(O)CCc1ccc(C#CC2(O)CCCCC2)cc1 | > 100 µM

Value (EC50, UniProt Q5NUL3) for record `C=C(C)C#Cc1ccc(CCC(=O)O)cc1` = > 100 µM
